Biological target: Mu-type opioid receptor (Rattus norvegicus)
Sequence (P33535 whole entry): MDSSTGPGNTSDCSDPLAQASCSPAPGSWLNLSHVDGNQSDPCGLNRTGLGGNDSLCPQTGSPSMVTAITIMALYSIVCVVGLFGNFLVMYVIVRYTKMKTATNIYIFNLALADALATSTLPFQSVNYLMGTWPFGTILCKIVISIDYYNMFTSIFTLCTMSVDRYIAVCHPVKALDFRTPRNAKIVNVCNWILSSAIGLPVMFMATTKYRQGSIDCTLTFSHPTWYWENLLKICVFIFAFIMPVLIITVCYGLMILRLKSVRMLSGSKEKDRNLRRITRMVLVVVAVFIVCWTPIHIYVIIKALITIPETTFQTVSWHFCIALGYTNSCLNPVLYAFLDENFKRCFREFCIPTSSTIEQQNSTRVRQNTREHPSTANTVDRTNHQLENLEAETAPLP
pKi: −log10 of the molar value.
Listed below: pKi values for each entry.
METRIC: pKi

INSERT INTO results (smiles_representation, recorded_number) VALUES
  ('CCCC[C@@H](C(=O)N[C@@H](CC(=O)O)C(=O)N[C@@H](Cc1ccccc1)C(N)=O)N(C)C(=O)[C@@H](Cc1c[nH]c2ccccc12)NC(=O)CNC(=O)[C@@H](Cc1ccccc1)NC(=O)[C@@H](N)Cc1ccc(O)cc1', 8.23),
  ('CCCC[C@H](NC(=O)[C@@H](Cc1c[nH]c2ccccc12)NC(=O)CNC(=O)[C@@H](C)NC(=O)[C@@H](N)Cc1ccc(O)cc1)C(=O)N[C@@H](CC(=O)O)C(=O)N[C@@H](Cc1ccccc1)C(N)=O', 6.23),
  ('CCCC[C@H](NC(=O)[C@H](Cc1c[nH]c2ccccc12)NC(=O)CNC(=O)[C@@H](Cc1ccccc1)NC(=O)[C@@H](N)Cc1ccc(O)cc1)C(=O)N[C@@H](CC(=O)O)C(=O)N[C@@H](Cc1ccccc1)C(N)=O', 7.47);
